Quick reference for growth among some compounds
# Tested on: MALME-3M melanoma
# method-summary: NCI-60 one-dose screen, 48 h (100 = growth as untreated, 0 = no growth, -100 = all killed)
# experimental-context: 10 µM unless noted
The panel holds about 83,000 compounds, 20% with a hit somewhere; the sample as a whole holds those more often.
Expressed in %, but write only the number.

Entry under test: COc1cc2c(cc1OC)C(=O)/C(=C/c1cc(C)c(O)c(C)c1)S2 . Its growth was 71.7

The compound identified as COC1=CC(=O)c2ccccc2C1=O registered its growth at 72.4

Noted for COCCCN1CC(O)=C(c2nc(-c3ccc(C)cc3)cs2)C1=N : its growth reads 101

Sample N/C(=N\C(N)=N\c1nc2ccccc2s1)c1cnccn1 ; growth observed: 16.8

growth in this record for O=C(Nc1cccc(C(=O)N2CCc3ccc(Cl)cc32)c1)c1ccco1 : 40.9

Lab book: growth of Cc1ccc(-n2cc(-c3ccccc3)c3c2N=NN2CCN=C32)cc1 noted as 104

Next:
The recorded growth for COc1cc(/C=C\C(=O)O)ccc1OCc1ccccc1 is 102

// field: growth; key: COc1cc2nc(-c3ccc(Cl)cc3)cc(OCCCN3CCCC3)c2cc1OC ; value = 50

growth reading for CC[C@]12C=CCN3CC[C@@]4(c5cc(NC(=O)CCC(=O)O[C@H]6CC[C@H]7[C@@H]8CCC9=CC(=O)CC[C@@H]9[C@H]8CC[C@]67C)c(OC)cc5N(C)[C@H]4[C@@](O)(C(=O)OC)[C@@H]1OC(C)=O)[C@@H]32 : 98.9

Record COc1ccc(/C=C/c2nc(Nc3ccc(S(=O)(=O)Nc4nc(C)cc(C)n4)cc3)c3ccccc3n2)cc1 . Reported growth: 89.6

The recorded growth for entry NNC(=O)c1ccc(-n2nc(-c3ccccc3)c3ccccc32)cc1 equals 90.2

So for CCOC(=O)c1ccc2c(c1)ncn2-c1ccc(NC(=O)Nc2cccc(C)c2)cc1 , the logged growth turned out to be 96.2

The compound listed as OCc1cnccc1NCCCOc1ccccc1 has a reported growth of 104

----------
# Test system: HOP-92 NSCLC
# method-summary: NCI-60 one-dose screen, 48 h (100 = growth as untreated, 0 = no growth, -100 = all killed)
# experimental-context: 10 µM unless noted
# Procedure: Growth inhibition of the HOP-92 human Non-Small Cell Lung tumor cell line is measured as a screen for anti-cancer activity. Cells are grown in 96 well plates and exposed to the test compound for 48 hours. Compounds are tested at a single concentration, which is 10^-5 M for most compounds. The reported endpoint is percent growth (GI% or GIPRCNT), where numbers from 0 - 100% represent growth inhibition, and numbers from -100% - 0 represent cell death. […]
The panel holds about 83,000 compounds, 20% with a hit somewhere; the sample as a whole holds those more often.
measured-parameter: growth (%)
Give the value in % but do not write % after it.

Summary for this molecule, O=C(Nc1ccc(F)cc1)Nc1ccc(NC(=O)c2cc(Cl)nc3ccccc23)cc1 : growth is 23.5

The recorded growth for O=C1Nc2cc(-c3cccc(O)c3)ccc2/C1=C/c1ccc[nH]1 is 30.9

More entries:
Notebook: N/C(=N\C(N)=N\c1nc2ccccc2s1)c1ccnc(Br)c1 , growth read as 47

Record O=[N+]([O-])c1cc(Br)c2cccc3c2c1CC3 . Reported growth: 97.1

Summary for this molecule, COc1cc2oc(-c3cccc(C(=O)Nc4ccccc4)c3)cc(=O)c2c(O)c1OC : growth is 5.28

Notebook: Cn1ccnc1C(=O)/C=C/c1ccc(CC(=O)Nc2ccc(Cl)cc2)cc1 , growth read as 72

Notebook: COc1cc(/C(C)=C(\c2ccc(Cl)cc2)c2ccc(OCCN3CCCC3)cc2)ccc1F , growth read as 52.4

Entry under test: Cc1cnc(C(=O)Nc2nc3ccc(S(=O)(=O)Nc4ccc(C5(C(F)(F)F)CC5)cc4)cc3[nH]2)cn1 . Its growth was 32.8

So, Cc1cc(C(=O)/C=C/c2ccc[nH]2)ccc1-n1ccc(C(F)(F)F)n1 ? Its growth was 104

Form field growth, entry O=C(/C=C(O)/C=C/c1ccc(SC(F)(F)F)cc1)/C=C/c1ccc(SC(F)(F)F)cc1 : 93
